test: Light stability in MCT oil (HPLC % area); format: physicochemical; conditions: light exposure 1 d
measured.endpoint: Purity after 1 d (%)

// field: Purity after 1 d (%); key: "CC(C)=CCC/C(C)=C/CC/C(C)=C/CC/C(C)=C/CC/C(C)=C/CC/C(C)=C/CC/C(C)=C/Cc1c(C)c(O)c2ccccc2c1OC(=O)c1ccccc1" ; value = 72.5

Noted for "CCC(=O)Oc1c(C)c(C/C=C(\C)CC/C=C(\C)CC/C=C(\C)CC/C=C(\C)CC/C=C(\C)CC/C=C(\C)CCC=C(C)C)c(OC(=O)CC)c2ccccc12" : its Purity after 1 d (%) reads 96.7

Purity after 1 d (%) measured on "CCC(=O)Oc1c(C/C=C(\C)CC/C=C(\C)CC/C=C(\C)CC/C=C(\C)CC/C=C(\C)CC/C=C(\C)CCC=C(C)C)c(C)c(OC(=O)CCNC(=O)OC(C)(C)C)c2ccccc12" = 89.4

Reported Purity after 1 d (%) ( "CC(C)=CCC/C(C)=C/CC/C(C)=C/CC/C(C)=C/CC/C(C)=C/CC/C(C)=C/CC/C(C)=C/Cc1c(C)c(OC(=O)c2ccccc2)c2ccccc2c1OC(=O)c1ccccc1" ) = 97.3

Purity after 1 d (%) in this record for "CCC(=O)Oc1c(C/C=C(\C)CC/C=C(\C)CC/C=C(\C)CC/C=C(\C)CC/C=C(\C)CC/C=C(\C)CCC=C(C)C)c(C)c(OC(=O)[C@@H](NC(=O)OC(C)(C)C)C(C)C)c2ccccc12" : 92.0
